Every entry's value here was drawn from patent US5053070A.

system: barnyardgrass; experiment: Upland foliar application test by mixed formulations (Test 7); type: in vivo; settings: Echinochloa crus-galli, 720 h, applied alone, 0.3 kg/ha, 30th day, read-out: Herbicidal effects (%) Barnyardgrass Ea
This section presents compounds with their documented pest or weed control at 300 g/ha values.
Reply numerically in %, unit not repeated.

Look over these answered cases.
COc1cc(OC)nc(Oc2ccccc2C=NOCC=Cc2ccccc2Br)n1 = 20
COc1cc(OC)nc(Oc2ccccc2C=NOCC=Cc2ccccc2Cl)n1 = 50

Identify measured pest or weed control at 300 g/ha corresponding to "COc1cccc(C=CCON=Cc2ccccc2Oc2nc(OC)cc(OC)n2)c1" 50

Identify measured pest or weed control at 300 g/ha corresponding to "COc1cc(OC)nc(Oc2ccccc2C=NO)n1" 50

Identify measured pest or weed control at 300 g/ha corresponding to "COc1cc(OC)nc(Oc2ccccc2C=NOCC#Cc2ccccc2)n1" 50
